# TARGET: Glucagon receptor (Homo sapiens)
# Sequence (P47871 whole entry): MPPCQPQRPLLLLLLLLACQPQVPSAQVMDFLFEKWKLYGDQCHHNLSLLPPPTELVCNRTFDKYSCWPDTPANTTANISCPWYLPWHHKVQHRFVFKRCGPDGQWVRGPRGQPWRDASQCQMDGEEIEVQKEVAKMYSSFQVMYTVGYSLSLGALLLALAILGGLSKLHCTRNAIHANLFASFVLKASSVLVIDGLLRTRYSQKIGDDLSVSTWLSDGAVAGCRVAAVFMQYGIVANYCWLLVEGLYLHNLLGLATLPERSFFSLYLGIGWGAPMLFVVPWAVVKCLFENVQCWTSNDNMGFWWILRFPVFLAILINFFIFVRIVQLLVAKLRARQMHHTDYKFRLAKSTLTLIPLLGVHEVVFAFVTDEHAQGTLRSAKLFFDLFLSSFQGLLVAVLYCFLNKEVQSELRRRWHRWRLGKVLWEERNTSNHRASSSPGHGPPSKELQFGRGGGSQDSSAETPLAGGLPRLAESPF
# EXPERIMENT: Displacement of [125I]-glucagon from wild type human glucagon receptor expressed in CHO-K1 cells after 3 hrs by scintillation counting method
# Format: cell-based
# EXPERIMENTAL PARAMETERS: read-out: IC50
METRIC: IC50 (µM)
The answer is to be given in µM; state only the numeric part.

Answered cases to consult:
# MOLECULE, IC50, µM
rows = [
    ("COc1ccc2cc(-c3cc(-c4cc(Cl)cc(Cl)c4)nn3C(C)c3ccc(C(=O)N4CCC(C(=O)O)CC4)cc3)ccc2c1 (stereo unspecified)", 41.7),
    ("COc1cc(OC)cc(-c2cc(-c3cc(Cl)cc(Cl)c3)nn2C2CCc3cc(C(=O)NCCC(=O)O)ccc32)c1 (stereo unspecified)", 5.7),
    ("COc1ccc2cc(-c3cc(-c4cc(Cl)cc(Cl)c4)nn3C(C)c3ccc(C(=O)NC(C)CC(=O)O)cc3)ccc2c1 (stereo unspecified)", 20.2),
    ("CC(CC(=O)O)NC(=O)c1ccc(C(C)n2nc(-c3cc(Cl)cc(Cl)c3)cc2-c2ccc3c(c2)CCO3)cc1 (stereo unspecified)", 18.1),
]

Query: Return IC50 for the following molecule: O=C(O)CCNC(=O)c1ccc2c(c1)CCC2n1nc(-c2cc(Cl)cc(Cl)c2)cc1-c1ccco1 (stereo unspecified)
Result: 71.8

Query: Return IC50 for the following molecule: COc1ccc2cc(-c3cc(-c4cc(Cl)cc(Cl)c4)nn3C3CCc4cc(C(=O)NCCC(=O)O)ccc43)ccc2c1 (stereo unspecified)
Result: 4.7

Query: Return IC50 for the following molecule: CC(CC(=O)O)NC(=O)c1ccc(C(C)n2nc(-c3cc(Cl)cc(Cl)c3)cc2-c2ccc(C(C)(C)C)cc2)cc1 (stereo unspecified)
Result: 41

Query: Return IC50 for the following molecule: COc1ccc2cc(-c3cc(-c4cc(Cl)cc(Cl)c4)nn3C(C)c3ccc(C(=O)N4CCCC(C(=O)O)C4)cc3)ccc2c1 (stereo unspecified)
Result: 112

Query: Return IC50 for the following molecule: O=C(O)CCNC(=O)c1ccc2c(c1)CCC2n1nc(-c2cc(Cl)cc(Cl)c2)cc1-c1cccs1 (stereo unspecified)
Result: 14.5

Query: Return IC50 for the following molecule: COc1ccc2cc(-c3cc(-c4cc(Cl)cc(Cl)c4)nn3C(C)c3ccc(C(=O)NCC(C)C(=O)O)cc3)ccc2c1 (stereo unspecified)
Result: 8.4

Query: Return IC50 for the following molecule: COc1ccc2cc(-c3cc(-c4cc(Cl)cc(Cl)c4)nn3C(C)c3ccc(C(=O)N4CCC(C(=O)O)C4)cc3)ccc2c1 (stereo unspecified)
Result: 131

---

# TARGET: Glucagon receptor (Homo sapiens)
# EXPERIMENT: Antagonist activity at wild type human glucagon receptor expressed in HEK293T cells assessed as inhibition of glucagon-induced cAMP accumulation incubated for 30 mins by TR-FRET assay
# Format: functional, cell-based, HEK-293T
METRIC: pIC50
Would you please state pIC50, meaning minus log10 of the concentration in mol/L, as a bare number?

# MOLECULE, pIC50
records = [
    ("COc1ccc2cc(-c3cc(-c4cc(Cl)cc(Cl)c4)nn3C(C)c3ccc(C(=O)NC(CC(=O)O)c4ccccc4)cc3)ccc2c1 (stereo not drawn)", 4.68),
    ("O=C(O)CCNC(=O)c1ccc2c(c1)CCC2n1nc(-c2cc(Cl)cc(Cl)c2)cc1-c1ccc2c(c1)OCCO2 (stereo not drawn)", 5.20),
    ("COc1ccc2cc(-c3cc(-c4cc(Cl)cc(Cl)c4)nn3C(C)c3ccc(C(=O)N4CCC(C(=O)O)CC4)cc3)ccc2c1 (stereo not drawn)", 5.35),
]

Query: Return pIC50 for the following molecule: COc1ccc2cc(-c3cc(-c4cc(Cl)cc(Cl)c4)nn3C3CCc4cc(C(=O)NCCC(=O)O)ccc43)ccc2c1 (stereo not drawn)
Result: 5.82

Query: Return pIC50 for the following molecule: COc1ccc2cc(-c3cc(-c4cc(Cl)cc(Cl)c4)nn3C(C)c3ccc(C(=O)NCC(C)C(=O)O)cc3)ccc2c1 (stereo not drawn)
Result: 5.80

Query: Return pIC50 for the following molecule: O=C(O)CCNC(=O)c1ccc2c(c1)CCC2n1nc(-c2cc(Cl)cc(Cl)c2)cc1-c1ccc(F)cc1 (stereo not drawn)
Result: 5.85

Query: Return pIC50 for the following molecule: O=C(O)CCNC(=O)c1ccc2c(c1)CCC2n1nc(-c2cc(Cl)cc(Cl)c2)cc1-c1ccc2ccccc2c1 (stereo not drawn)
Result: 5.92

Query: Return pIC50 for the following molecule: COc1cc(OC)cc(-c2cc(-c3cc(Cl)cc(Cl)c3)nn2C2CCc3cc(C(=O)NCCC(=O)O)ccc32)c1 (stereo not drawn)
Result: 5.92
